B1: ESRRA (parent)
chain: LGVAQRSLPLQDELAFAEDLVLDE

variants of: B1; assay: protein stability index of a GFP-peptide fusion (GPS, HEK-293T) (PSI 1-6); higher = more stable; details: c terminus: a fixed tail appended;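 note: lentivirally expressed fusions sorted by FACS into six bins by GFP to DsRed ratio, PSI derived from sequencing read proportions per bin multiplied by bin number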
# protein stability index per entry

Consider the following illustrative entries.
Q11K :: 2
P9L :: 3.89
L14C :: 5.43
L22Y :: 3.98
D12Y :: 1.8
F16M :: 2.81

## Task Using the record for L14G , report its protein stability index.
## Result 5.46

## Task Using the record for E18G , report its protein stability index.
## Result 5

Taken from the supplement of paper PMC10567573.
